B1: POU domain, class 4, transcription factor 2, residues 256 to 327; numbered along this chain, Q12837 (parent)
chain: RDLEAFAERFKQRRIKLGVTQADVGSALANLKIPGVGSLSQSTICRFESLTLSHNNMIALKPILQAWLEEAE

# Variants of: B1
# assay.name: abundance fitness (aPCA) (normalised: wild type 0, dead -1); higher = more abundant; growth selection in yeast, the domain comes from the species named
# condition.summary: Homo sapiens
The threshold is inclusive: abundance fitness of exactly -0.2 counts as Satisfied; values below receive Not satisfied.

>  <change>
C45G

>  <group.label>
Satisfied

$$$$
>  <change>
P34M

>  <group.label>
Satisfied

$$$$
>  <change>
E69D

>  <group.label>
Not satisfied

$$$$
>  <change>
S53C

>  <group.label>
Not satisfied

$$$$
>  <change>
S53F

>  <group.label>
Not satisfied

$$$$
>  <change>
I15C

>  <group.label>
Not satisfied

$$$$
>  <change>
L64Q

>  <group.label>
Not satisfied

$$$$
>  <change>
V36F

>  <group.label>
Satisfied

$$$$
>  <change>
L60F

>  <group.label>
Not satisfied

$$$$
>  <change>
C45H

>  <group.label>
Satisfied

$$$$
